# ASSAY_INFO: Pharmacokinetic determination in rats
# Format: in vivo
# CONDITION_SET: rat; male SD rats, plasma, oral administration (PO) 5 mg/kg
MEASURED_ENDPOINT: half-life (h)

SAMPLE_SMILES: CCC(=O)N[C@@H]1CCCc2c(-c3ccc4c(c3)COC(=O)N4C)cncc21
UOM: h
RECORDED_NUMBER: 2.6
--
SAMPLE_SMILES: COc1ccc2cc(-c3cncc(N4CC5(CN(C(=O)c6cnn(C)c6)C5)C4)c3)ccc2n1
UOM: h
RECORDED_NUMBER: 2.2
--
SAMPLE_SMILES: Cn1cc(C(=O)N2CC(Oc3cncc(-c4ccc5c(c4)sc(=O)n5C)c3)C2)cn1
UOM: h
RECORDED_NUMBER: 2.2
--
SAMPLE_SMILES: COc1ccc2cc(-c3cncc(N4CC5(CN(C(=O)c6ccc(C)nc6)C5)C4)n3)ccc2n1
UOM: h
RECORDED_NUMBER: 2
--
SAMPLE_SMILES: CCC(=O)N[C@@H]1CCCc2c(-c3ccc4c(cnn4C)c3)cncc21
UOM: h
RECORDED_NUMBER: 1.3

(P) COc1ccc2cc(-c3cncc(N4CC5(CN(C(=O)c6cnn(C)c6)C5)C4)n3)ccc2n1
(Q) Cn1cc(C(=O)N2CCC3(CC2)CN(c2cncc(-c4ccc5c(c4)sc(=O)n5C)c2)C3)cn1
Which one would you say has the larger half-life value: P , or Q ? Kindly state the label of the option you pick.
P
